Tested on: HCT-116 colon
protocolText: NCI tumour cell line growth inhibition, 48 h
Parameter GI50: see the listing below.

{"compound": "CSc1ccc(C2=NN(C(C)=O)C(c3ccc(F)cc3)C2)cc1 (configuration not stated)", "GI50": "7110 nM"}
{"compound": "C=C1CCC2C3(C)COC(c4ccc(Cl)cc4)OC3CCC2(C)C1/C=C/C1=CCOC1=O (configuration not stated)", "GI50": "2540 nM"}
{"compound": "CCOC(=O)c1csc(NC(=O)COc2cccc(/C=C3\\CSc4ccccc4C3=O)c2)n1", "GI50": "1630 nM"}
{"compound": "CCc1nc2cc(/C=C/C(=O)NO)ccc2c(=O)n1CCc1ccc(F)cc1", "GI50": "490 nM"}
{"compound": "O=S(=O)(Nc1ccc2ccccc2c1)c1ccc(-c2cnc(C3CC3)o2)cc1", "GI50": "746 nM"}
{"compound": "CCOc1c(C#N)c2c(N)ncnc2n1C1OC(CO)C(O)C1O (configuration not stated)", "GI50": "881 nM"}
{"compound": "CC[C@]12C=CCN3CC[C@@]4(c5ccc(OC)cc5N(C)[C@H]4[C@@](O)(C(=O)OC)[C@@H]1OC(=O)CCC(=O)N[C@H](Cc1c[nH]c4ccccc14)C(=O)OC)[C@@H]32", "GI50": "3020 nM"}

----------
System: MCF7 breast
protocolText: NCI tumour cell line growth inhibition, 48 h
Parameter GI50: see the listing below.

{"smilesNotation": "COC(=O)c1ccc2c(c1)c1c(C)c3ccncc3c(C)c1n2C", "GI50": "0.267 µM"}
{"smilesNotation": "O=C(Nc1ccc2c(c1)OCO2)C(=O)c1c[nH]c2cc(F)ccc12", "GI50": "6.91 µM"}
{"smilesNotation": "COc1cc(/C=C\\c2cc(/C=C\\c3ccc(O)c(OC)c3)n(C(=O)CNc3ccc(Cl)cc3)n2)ccc1O", "GI50": "2.34 µM"}
{"smilesNotation": "COc1cc2ncn(-c3cc(OCc4ccccc4C(F)(F)F)c(C(C)=O)s3)c2cc1OC", "GI50": "> 25 µM"}
{"smilesNotation": "COc1cc(-c2ccc(NC(=O)NC3CC3)c(OC)c2)ccc1NC(=O)NC1CC1", "GI50": "5.69 µM"}

----------
System: UACC-62 melanoma
protocolText: NCI tumour cell line growth inhibition, 48 h
parameterMeasured: log10 TGI (log10 of the value in µM)

{"compound": "CO[C@@H]1[C@H]2[C@@H](C)c3ccoc3C[C@@H]2[C@@]2(C)CC[C@H](OC(=O)c3ccccc3)[C@](C)(C(=O)O)[C@]2(O)[C@@H]1OC(=O)c1ccccc1", "log10 TGI": 1.13}
{"compound": "O=c1[nH]c(=O)n(C/C=C/CBr)nc1Br", "log10 TGI": 1.44}
{"compound": "Cc1ccc(C2CC(c3cccc(Nc4ccncc4)c3)=NN2c2ccccc2)cc1 (centres undefined)", "log10 TGI": 0.49}
{"compound": "CN1CCN(Cc2ccc(NC(=O)c3cncc(C#Cc4cnn5ccccc45)c3)cc2C(F)(F)F)CC1", "log10 TGI": 0.38}
{"compound": "CCN(CC)CC(C)(C)C(=O)/C=C/c1ccc(/C=C/C(=O)C(C)(C)CN(CC)CC)cc1", "log10 TGI": 0.69}
{"compound": "O=[N+]([O-])c1cccc2nc3ccccc3c(NCCCN3CCCCC3)c12", "log10 TGI": -1.53}
{"compound": "COc1cc2c(cc1OC)c1c(OC)c(OC)cc3c1c1c2sc(=S)n1CC3", "log10 TGI": 1.77}
{"compound": "O=C(Nc1cccc(Cl)c1)c1cc(N=Nc2ccc([N+](=O)[O-])cc2Cl)ccc1O", "log10 TGI": 0.82}
{"compound": "Cn1nc(-c2ccccc2)c(C(=O)/C=C/c2ccc(F)cc2)c(N2CCOCC2)c1=O", "log10 TGI": 1.63}
{"compound": "CC[C@@H](C)Nc1cc(C(=O)NC2CC3CCC(C2)N3c2ccc(C(=O)C3CC3)cn2)c(C)cc1C(N)=O (some centres undefined)", "log10 TGI": 1.08}
{"compound": "C=C1C(=O)OC2C1C(OC(=O)/C(C)=C\\C)CC1(CO1)C1C(O)C=C(C)C21O (centres undefined)", "log10 TGI": 0.76}
{"compound": "CCOC(=O)c1csc(NC(=O)COc2cccc(/C=C3\\CSc4ccccc4C3=O)c2)n1", "log10 TGI": 0.85}
{"compound": "CC(C)(C)c1ccc(O)c(CN(Cc2cc(C(C)(C)C)ccc2O)C2CCCCC2)c1", "log10 TGI": 1.50}
{"compound": "CC(Oc1ccccc1Cl)C(=O)NN1C(=O)CSC1c1ccc(Cl)cc1 (centres undefined)", "log10 TGI": 1.53}
{"compound": "CC(=O)Oc1c2oc3cc(O)c(O)cc3c2c(OC(C)=O)c2oc3cc(O)c(O)cc3c12", "log10 TGI": 1.60}
{"compound": "CCOC(=O)C1SC(=Nc2ccc(Cl)cc2C)N=C1C (centres undefined)", "log10 TGI": 1.45}

----------
Test system: UACC-257 melanoma
protocolText: NCI tumour cell line growth inhibition, 48 h
Parameter TGI: see the listing below.

{"molecule": "O=C(O)CCC(NC(=O)c1ccc(CNc2nc3ccccc3nc2C(=O)O)cc1)C(=O)O (configuration not stated)", "TGI": "> 100 µM"}
{"molecule": "COC(=O)C1=C(O)[C@H](C(=O)OC)[C@]2(O)[C@@H](C(=O)OC)[C@H]1C[C@@H](c1ccc(OC(=O)/C=C/c3ccco3)cc1)[C@@H]2C(=O)OC", "TGI": "> 100 µM"}
{"molecule": "COc1ccc2c(c1)N(CCO)C1=C(C(=O)OC1)C2c1ccccc1 (configuration not stated)", "TGI": "> 50 µM"}
{"molecule": "C=CCn1cnc2c(=O)[nH]c(Nc3ccccc3)nc21", "TGI": "> 100 µM"}
{"molecule": "COc1ccc2c(CCNS(=O)(=O)c3ccccc3)c(C(C)=O)[nH]c2c1", "TGI": "> 57.1 µM"}
{"molecule": "CCN(CC)C(=S)SS(=O)(=O)c1ccccc1[N+](=O)[O-]", "TGI": "> 60.6 µM"}
{"molecule": "CC1OC(O[C@H]2CC[C@]3(C=O)[C@H]4CC[C@]5(C)[C@H](C6=CC(=O)OC6)CC[C@]5(O)[C@@H]4C=C[C@]3(O)C2)CC(O)C1O (some centres not stated)", "TGI": "1.82 µM"}
{"molecule": "Cc1ccc(NC(=O)CC/C(CC(=O)C(C)(C)C)=N\\Nc2ccc([N+](=O)[O-])cc2[N+](=O)[O-])cc1C", "TGI": "> 100 µM"}
{"molecule": "CC(C)(C)NC/C(=C\\c1ccccc1)C(=O)c1ccccc1", "TGI": "6.91 µM"}
{"molecule": "CC(=N)N(C)O", "TGI": "> 100 µM"}
{"molecule": "C1CCN2CC3CCCN4CCCC(C2C1)C34 (configuration not stated)", "TGI": "> 100 µM"}
{"molecule": "CC(=O)O[C@H]1C(=O)[C@@]2(C)[C@H]([C@H](OC(=O)c3ccccc3)[C@@]3(O)C[C@H](O)C(C)=C1C3(C)C)[C@]1(OC(C)=O)CO[C@@H]1C[C@@H]2O", "TGI": "> 100 µM"}
{"molecule": "O=C(O)c1ccc(Nc2nc3cc(C(F)(F)F)ccc3nc2-c2ccccc2)cc1", "TGI": "> 100 µM"}
{"molecule": "COc1cc(CC(C(=O)O)C(=O)O)c(OC)cc1CC(C(=O)O)C(=O)O", "TGI": "> 100 µM"}
{"molecule": "BrCC(Br)(c1ccccc1)c1ccccc1-c1cc(-c2ccccc2)cc(-c2ccccc2)n1 (configuration not stated)", "TGI": "8.92 µM"}
{"molecule": "COc1cc2ncn(-c3cc(OCc4ccccc4C(F)(F)F)c(C(C)=O)s3)c2cc1OC", "TGI": "> 25 µM"}
{"molecule": "CSc1ccc(C2=NN(C(C)=O)C(c3ccc(F)cc3)C2)cc1 (configuration not stated)", "TGI": "45 µM"}
{"molecule": "CO[C@@H]1[C@H]2[C@@H](C)c3ccoc3C[C@@H]2[C@@]2(C)CC[C@H](OC(=O)c3ccccc3)[C@](C)(C(=O)O)[C@]2(O)[C@@H]1OC(=O)c1ccccc1", "TGI": "40.7 µM"}
{"molecule": "COc1cc(/C=C\\c2ccc(OC(C)=O)cc2)cc(OC)c1OC", "TGI": "> 100 µM"}
{"molecule": "CCOC(=O)c1cc(-c2ccc(OC)c(OC)c2)[nH]c1N/N=C/c1c(Cl)cccc1Cl", "TGI": "> 71.9 µM"}
{"molecule": "CCOC(=O)c1csc(NC(=O)COc2cccc(/C=C3\\CSc4ccccc4C3=O)c2)n1", "TGI": "16.7 µM"}
{"molecule": "OC(c1ccccc1)C(F)(F)c1nc2ccccc2o1 (configuration not stated)", "TGI": "> 100 µM"}
{"molecule": "Nc1ccccc1N=Nc1c(S(=O)(=O)O)cc2cc(S(=O)(=O)O)cc(O)c2c1O", "TGI": "> 100 µM"}
{"molecule": "O=C(NNC(=S)Nc1ccccc1)c1ccccn1", "TGI": "21.2 µM"}
{"molecule": "COc1ccc(Nc2nc3ccccc3nc2C(=O)O)cc1OC", "TGI": "> 100 µM"}
{"molecule": "CN1C(=O)C23CCCCC2CC1(c1ccccc1)S3 (configuration not stated)", "TGI": "54.5 µM"}
{"molecule": "COc1ccc(-c2nc(-c3cnccn3)n(COCCO)n2)cc1", "TGI": "> 100 µM"}

Provenance of the data: PubChem BioAssay (NCI)
